Each recorded value in this set is attributed to patent US20260234738A1.

target: SARS-COV-2 RBD extracellular domain expressed with a C-terminal mouse IgG2a (SARS-CoV-2)
pKd: −log10 of the molar value.
observationType: pKd

| binder | pKd |
| --- | --- |
| mAb10986 (antibody, V domains shown) VH: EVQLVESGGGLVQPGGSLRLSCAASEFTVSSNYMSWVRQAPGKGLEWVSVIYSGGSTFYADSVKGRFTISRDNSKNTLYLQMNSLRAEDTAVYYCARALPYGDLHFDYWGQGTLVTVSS VL: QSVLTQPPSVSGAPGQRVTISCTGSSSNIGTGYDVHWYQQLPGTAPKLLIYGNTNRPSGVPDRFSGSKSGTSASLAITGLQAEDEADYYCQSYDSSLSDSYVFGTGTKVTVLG | ≥ 10.80 |
| mAb10921 (antibody, V domains shown) VH: EVQLVESGGGLVQPGGSLRLSCAASGITVSSNYMSWVRQAPGKGLEWVSVIYSGGSTFYADSVKGRFTISRHNSKNTLYLQMNSLRAEDTAVYYCARERNFDAFDIWGQGTMVTVSS VL: DIQMTQSPSSVSASVGDRVTITCRASQGISSWLAWYQQKPGKAPKLLIYAASSLQSGVPSRFSGSGSGTDFTLTISSLQPEDFATYYCQQANSFPLFTFGPGTKVDIKR | ≥ 10.43 |

GET /values?readout=pKd&item= mAb10984 (antibody, V domains shown) VH: EVQLVESGGGLVQPGGSLRLSCAASGLTVNRNYMSWVRQAPGKGLEWVSLIYSGGSTYYADSVKGRFTISRDNSKNTLYLQMNSLRLEDTAVYYCARGELGIPYGMDVWGQGTTVTVSS VL: QSVLTQPPSVSAAPGQKVTISCSGSSSNIGNNYVSWYQQLPGTAPKLLIYDNNKRPSGIPDRFSGSKSGTSATLGITGLQTGDEADYYCGTWDSSLSAGVFGGGTKLTVLG
≥ 10.60
